Tested on: MS2 coat protein
procedure details: apparent KD of MS2 coat protein; designed switch direction (-1 OFF switch, 1 ON switch): -1; higher = weaker reporter binding
conditions used: input ligand: none
readout type: apparent KD of MS2 coat protein (µM)
Reply with just the number (in µM).

macromolecule_sequence="CUUGACUGAGGAUAUUGUGCUGCUGACAUGAGGAUCACCCAUGUAUGUUAACUCGGCCGUCGAGAAGGCAGAAAGG [BotMod 19 - Jieux - Exclusion 5] (Eterna round: R97, puzzle: Exclusion 5)" unit_of_measurement=µM data_value=0.0408
macromolecule_sequence="GUCUUCAUGACAUGAGGAUCACCCAUGUGUUAUAUGUUAACUAAGGAUAUAUUUUUAAUGUUGAGAUAGAAGGUAGUUUCGGUC [JR_ExcNG3_Sub091] (Eterna round: R96, puzzle: Exclusion NG 3)" unit_of_measurement=µM data_value=0.131

As a next step, examine the sequence that follows.
# lookup: apparent KD of MS2 coat protein of AGCAGACGAGGAUAUGAUCAAUAAUACAUGAGGAUCACCCAUGUAAUACUGAUCCAUGGAUCAGAAGGCGUCUGCU [E5/5-A1] (Eterna round: R97, puzzle: Exclusion 5)
0.0164
